target: FRMPD2_3, Q68DX3; assay: holdup assay; set-up: key: below the threshold = too weak to quantify, mostly under pKd 3.1 to 4; conditions: plain residues with an end cap or a label only (N-terminal biotin on a linker: ttds)
Sequence (Q68DX3 1073-1166): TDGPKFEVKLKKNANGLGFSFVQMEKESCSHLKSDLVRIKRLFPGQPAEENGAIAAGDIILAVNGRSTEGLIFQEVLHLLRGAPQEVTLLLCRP

BINDER	pKd
RTRQRNETQV [HPV51-E6, P26554]	below the threshold
DPRNTQTSQI [ABRAXAS2, Q15018]	3.54
GGPKEEESPV [SLC16A1, P53985]	below the threshold
QFQYAKESYI [TAGAP, Q8N103]	below the threshold
LCALPKVTTV [AGMAT, Q9BSE5]	below the threshold
